- target-desc: CB1 cannabinoid receptor (Rattus norvegicus)
- Construct: membranes were prepared from rat forebrain membranes; from tissue; host or cells: rat forebrain
- Sequence (P20272 whole entry): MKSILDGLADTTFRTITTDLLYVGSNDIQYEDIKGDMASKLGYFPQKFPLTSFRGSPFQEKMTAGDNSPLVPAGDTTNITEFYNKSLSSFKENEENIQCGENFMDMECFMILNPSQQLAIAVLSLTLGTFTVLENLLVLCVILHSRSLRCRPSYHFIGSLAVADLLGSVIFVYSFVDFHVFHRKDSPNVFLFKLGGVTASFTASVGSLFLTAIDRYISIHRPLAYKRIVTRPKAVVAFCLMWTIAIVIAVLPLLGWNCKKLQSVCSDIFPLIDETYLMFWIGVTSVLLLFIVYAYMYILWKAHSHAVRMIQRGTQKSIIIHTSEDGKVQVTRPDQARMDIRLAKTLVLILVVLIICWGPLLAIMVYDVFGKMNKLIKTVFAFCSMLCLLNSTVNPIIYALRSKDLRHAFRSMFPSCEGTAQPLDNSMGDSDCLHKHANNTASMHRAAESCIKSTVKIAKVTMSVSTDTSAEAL
- assay-procedure: CB1 receptor binding assay, [3H] CP-55,940 displacement, rat forebrain membranes
- Description: Some inventive analogs were tested for CB2 receptor binding affinity and for CB1 receptor affinity (to determine selectivity). […] The treated membranes were subsequently used in the binding assay described below. […] Radioactivity was detected using MicroScint 20 scintillation cocktail added directly to the dried filterplates, and the filterplates were counted using a Packard Instruments Top-Count. Nonspecific binding was assessed using 100 nM CP-55,940. […]
I'd be grateful if you could share measured log10 Ki for these entries.
All values: log10 Ki [nM].

Request: Give its log10 Ki value. Item: C#CCCCCC(C)(C)c1cc(O)c2c(c1)OC(C)(C)[C@@H]1CCC(=O)C[C@@H]21
Response: 1.03

Request: Give its log10 Ki value. Item: CC(C)(CCCCCCBr)c1cc(O)c([C@@H]2CC(=O)[C@@H]3C[C@H]2C3(C)C)c(O)c1
Response: 1.03

Request: Give its log10 Ki value. Item: CCCCCCC1(c2cc(O)c3c(c2)OC(C)(C)[C@@H]2CCC(=O)C[C@@H]32)SCCS1 (single isomer, unassigned)
Response: 1.07

Request: Give its log10 Ki value. Item: C#CCCCCC(C)(C)c1cc(O)c([C@@H]2CC(=O)[C@@H]3C[C@H]2C3(C)C)c(O)c1
Response: 1.49

Request: Give its log10 Ki value. Item: CC(C)(CCCCC=CI)c1cc(O)c2c(c1)OC(C)(C)[C@@H]1CC[C@@H](N=[N+]=[N-])C[C@@H]21
Response: -0.15

Request: Give its log10 Ki value. Item: CCCCC=CC1(c2cc(O)c3c(c2)OC(C)(C)[C@@H]2CCC(=O)C[C@@H]32)CCCC1
Response: -0.70

Request: Give its log10 Ki value. Item: CCCCCCC1(c2cc(O)c3c(c2)OC(C)(C)[C@@H]2CCC(=O)C[C@@H]32)CCCC1
Response: -1.00
